System: cellular uptake of 1 in HeLa Kyoto cells
Experiment: cells
Type: cell-based
Conditions: HeLa Kyoto, 2 h, HeLa; tpre 2 h with inhibitor, removal, tinc 0.5 h with 1 (10 µM); read-out: MIC, inhibition of cellular uptake of 1
recorded endpoint: minimal effective concentration

QUERY: What reported minimal effective concentration corresponds to O=C(O)C1CSSC1 on cellular uptake of 1 in HeLa Kyoto cells?
RESULT: > 2000 µM

QUERY: What reported minimal effective concentration corresponds to C=CCS[S+]([O-])CC=C (stereo not drawn) [compound 25, allicin, reference compound] on cellular uptake of 1 in HeLa Kyoto cells?
RESULT: > 500 µM

QUERY: What reported minimal effective concentration corresponds to O=C(O)CNC(=O)c1ccc2c(c1)S[S+]([O-])S2 (stereo not drawn) on cellular uptake of 1 in HeLa Kyoto cells?
RESULT: > 20 µM

QUERY: What reported minimal effective concentration corresponds to CCN1C(=O)C2SSSSC1C(=O)N2CC(=O)O (stereo not drawn) on cellular uptake of 1 in HeLa Kyoto cells?
RESULT: < 0.1 µM

QUERY: What reported minimal effective concentration corresponds to O=C(O)CCCCC1CCS[S+]1[O-] (stereo not drawn) on cellular uptake of 1 in HeLa Kyoto cells?
RESULT: > 2000 µM

QUERY: What reported minimal effective concentration corresponds to O[C@@H]1CSSC[C@@H]1O on cellular uptake of 1 in HeLa Kyoto cells?
RESULT: > 2000 µM

// provenance: paper PMC8179002
